target: free PSA (Homo sapiens, UniProt P07288); assay: Recognition of oligopeptides by free PSA (time to 50% cleavage, HPLC); conditions: free psa, pH 8
Sequence (P07288 25-261): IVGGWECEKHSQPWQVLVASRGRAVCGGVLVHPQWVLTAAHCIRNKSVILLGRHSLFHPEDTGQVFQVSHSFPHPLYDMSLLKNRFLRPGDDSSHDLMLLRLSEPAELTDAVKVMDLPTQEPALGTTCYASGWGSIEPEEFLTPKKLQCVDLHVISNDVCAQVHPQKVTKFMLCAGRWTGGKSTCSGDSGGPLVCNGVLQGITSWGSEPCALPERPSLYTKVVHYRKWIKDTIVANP
Where a SMILES comes first, the peptide text is derived from it. [ ]: non-standard residue; d: D form. The star is where a group is joined. Decanoyl(3,6,9-trioxa) = COCCOCCOCC(=O)*; Glyceroyl(2S) = O=C([C@@H](O)CO)*; hArg = N=C(N)NCCCC[C@H](N)C(=O)O; X4 = O=C([C@H](O)[C@@H](O)CO)*; Chg = N[C@H](C(=O)O)C1CCCCC1; X3 = O=C(C(O)CO)*
experimental readout: Time to 50% Substrate Cleavage by York PSA (min)
// note: answer is a bare numeric in min

## Task Requested read-out: Time to 50% Substrate Cleavage by York PSA. Entry: CC(C)C[C@H](NC(=O)[C@H](CO)NC(=O)[C@H](CCC(N)=O)NC(=O)[C@@H](NC(=O)[C@H](CCCCNC(=N)N)NC(=O)[C@H](CO)NC(=O)C(O)CO)C1CCCCC1)C(=O)O (stereo partly shown) [2,3-dihydroxypropionylShRChgQ-SL-acid] (X3-S[hArg][Chg]QSL-OH)
## Result 75

## Task Would you kindly share the measured Time to 50% Substrate Cleavage by York PSA for COCCOCCOCC(=O)N[C@@H](CO)C(=O)N[C@@H](CO)C(=O)N[C@@H](Cc1ccc(O)cc1)C(=O)N[C@@H](CCC(N)=O)C(=O)N[C@@H](CO)C(=O)N[C@@H](CC(C)C)C(=O)O [PEG(2)-SSYQ-SL-acid] ({Decanoyl(3,6,9-trioxa)}-SSYQSL-OH) ?
## Result 150

## Task Give its Time to 50% Substrate Cleavage by York PSA value. Item: CC(C)C[C@H](NC(=O)[C@H](CO)NC(=O)[C@H](CCC(N)=O)NC(=O)[C@@H](NC(=O)[C@H](CCCCNC(=N)N)NC(=O)[C@H](CO)NC(=O)[C@H](O)[C@@H](O)CO)C1CCCCC1)C(=O)O (X4-S[hArg][Chg]QSL-OH)
## Result 90

## Task Query (molecule): CC(C)C[C@H](NC(=O)[C@H](CO)NC(=O)[C@H](CCC(N)=O)NC(=O)[C@@H](NC(=O)[C@H](CO)NC(=O)[C@H](CO)NC(=O)[C@@H](O)CO)C1CCCCC1)C(=O)O [(I)2,3-dihydroxypropionyl-SSChgQ-SL-acid] ({Glyceroyl(2S)}-SS[Chg]QSL-OH) ; field requested: Time to 50% Substrate Cleavage by York PSA
## Result 180

----------
Molecular target: free PSA (Homo sapiens)
Experiment: Recognition of oligopeptides by free PSA (time to 50% cleavage, HPLC)
Details: free psa, pH 8
Method: The oligopeptides prepared as described in Example 1 were individually dissolved in PSA digestion buffer (12 mM tris(hydroxymethyl)-aminomethane pH8.0, 25 mM NaCl, 0.5 mM CaCl2) and the solution added to PSA at a molar ration of 100 to 1. The reaction is quenched after various reaction times by the addition of trifluoroacetic acid (TFA) to a final 1% (volume/volume). The quenched reaction was analyzed by HPLC on a reversed-phase C18 column using an aqueous 0.1% TFA/acetonitrile gradient. […]
Where a SMILES comes first, the peptide text is derived from it. [ ]: non-standard residue; d: D form. The star is where a group is joined. hArg = N=C(N)NCCCC[C@H](N)C(=O)O; Chg = N[C@H](C(=O)O)C1CCCCC1; Glycolyl = O=C(CO)*; X3 = O=C(C(O)CO)*
So I've got a bunch of compounds here, and I need their Time to 50% Substrate Cleavage by York PSA values.
Answer format: numeric, min implied, no suffix.

## Task Reported Time to 50% Substrate Cleavage by York PSA, compound CC(C)C[C@H](NC(=O)[C@H](CO)NC(=O)[C@H](CCC(N)=O)NC(=O)[C@@H](NC(=O)[C@H](CO)NC(=O)[C@H](CO)NC(=O)[C@H](CCCCNC(=N)N)NC(=O)C(O)CO)C1CCCCC1)C(=O)O (some centres unmarked) [2,3-dihydroxypropionyl-hRSSChgQ-SL-acid] (X3-[hArg]SS[Chg]QSL-OH) : ____
## Result 50

## Task Find the recorded Time to 50% Substrate Cleavage by York PSA belonging to CC(C)C[C@H](NC(=O)[C@H](CO)NC(=O)[C@H](CCC(N)=O)NC(=O)[C@@H](NC(=O)[C@H](CO)NC(=O)[C@H](C)NC(=O)[C@H](CCCCNC(=N)N)NC(=O)CO)C1CCCCC1)C(=O)O [2-hydroxyacetyl-hRASChgQ-SL-acid] (Glycolyl-[hArg]AS[Chg]QSL-OH) and report it.
## Result 70
